Value source: patent US20230286968A1

Quick reference for CC50 at 144 h among some compounds
testProtocol: Cytotoxicity in PHH natural infection assay (Cell Counting Kit-8)
Format: cell-based
studyConditions: HBV-infected primary human hepatocytes, CCK8

State, in one line, measured CC50 at 144 h of O=C(NC1CC2(C1)CC(c1nc3cc(Cl)ccc3o1)C2)N1CCC2(COC2)C1 (stereo not shown)
> 100 µM

State, in one line, measured CC50 at 144 h of [H][C@]1(C(=O)N[C@]2([H])C[C@@]3(C2)C[C@@]([H])(c2nc4cc(Cl)ccc4o2)C3)CC(=O)N(C)C1 (single isomer, unassigned) [Example 94d]
> 100 µM

State, in one line, measured CC50 at 144 h of CNc1cc(C(=O)NC2CC3(C2)CC(c2nc4cc(Cl)ccc4o2)C3)ccn1 (stereo not shown)
> 10 µM

State, in one line, measured CC50 at 144 h of O=C(NC1CC2(C1)CC(c1nc3cc(Cl)ccc3o1)C2)c1ccnc(NC2COC2)c1 (stereo not shown)
> 10 µM

State, in one line, measured CC50 at 144 h of CS(=O)(=O)N1CCC(C(=O)NC2CC3(C2)CC(c2nc4cc(Cl)ccc4o2)C3)C1 (stereo not shown)
> 100 µM

State, in one line, measured CC50 at 144 h of Cc1ccc(S(=O)(=O)N2CCC(CC(=O)NC3CC4(C3)CC(c3nc5cc(Cl)ccc5o3)C4)CC2)cc1 (stereo not shown)
> 10 µM

State, in one line, measured CC50 at 144 h of O=C(NC1CC2(C1)CC(c1nc3cc(Cl)ccc3o1)C2)C1CCCS1(=O)=O (stereo not shown)
> 100 µM

State, in one line, measured CC50 at 144 h of CS(=O)(=O)N1CC(CC(=O)NC2CC3(C2)CC(c2nc4cc(Cl)ccc4o2)C3)C1 (stereo not shown)
> 10 µM

State, in one line, measured CC50 at 144 h of O=C(NC1CC2(C1)CC(c1nc3cc(Cl)ccc3o1)C2)N1CCS(=O)(=O)CC1 (stereo not shown)
> 100 µM

State, in one line, measured CC50 at 144 h of O=C(NC1CC2(C1)CC(c1nc3cc(Cl)ccc3o1)C2)c1ccnc(N2CCCC2=O)c1 (stereo not shown)
> 10 µM

State, in one line, measured CC50 at 144 h of CNC(=O)c1cc(C(=O)NC2CC3(C2)CC(c2nc4cc(Cl)ccc4o2)C3)ccn1 (stereo not shown)
> 10 µM

State, in one line, measured CC50 at 144 h of CC(C)Oc1cc(C(=O)NC2CC3(C2)CC(c2nc4cc(Cl)ccc4o2)C3)ccn1 (stereo not shown)
> 10 µM

State, in one line, measured CC50 at 144 h of O=C(NC1CC2(C1)CC(c1nc3cc(Cl)ccc3o1)C2)C1CNS(=O)(=O)C1 (stereo not shown)
> 10 µM

State, in one line, measured CC50 at 144 h of CN1CC(CC(=O)NC2CC3(C2)CC(c2nc4cc(Cl)ccc4o2)C3)CC1=O (stereo not shown)
> 10 µM

State, in one line, measured CC50 at 144 h of N#Cc1cc(C(=O)NC2CC3(C2)CC(c2nc4cc(Cl)ccc4o2)C3)ccn1 (stereo not shown)
> 10 µM

State, in one line, measured CC50 at 144 h of CCCS(=O)(=O)N1CCC(C(=O)NC2CC3(C2)CC(c2nc4cc(Cl)ccc4o2)C3)C1 (stereo not shown)
> 10 µM
